Biological target: T1, MftR M127A (Mycobacterium smegmatis mc2155, UniProt A0QSB5 1-200, M127A)
T1 sequence: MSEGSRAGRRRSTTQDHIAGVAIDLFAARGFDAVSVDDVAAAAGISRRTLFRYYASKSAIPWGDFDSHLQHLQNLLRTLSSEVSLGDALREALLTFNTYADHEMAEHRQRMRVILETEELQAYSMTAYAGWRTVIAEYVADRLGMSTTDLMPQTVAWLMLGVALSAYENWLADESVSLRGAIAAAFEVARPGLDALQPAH
Assay: fluorescence polarization; EMSA: 50 mM Hepes, 50 mM NaCl, 0.1 mM EDTA, pH 7.5, room temperature 10 min, 5% PAGE in 1x TBE on ice; footprinting: 30 C 30 min; FP conditions not in material. Text fold changes for R29A/R48A and L120R/M127A are swapped relative to Table 2; table values used
Conditions: protein: recombinant; tags: His-tag (pET-28a); chain copies: 2; label: 6-FAM; blunt
test.readout: Kd (µM)
One number for each entry, in µM.

Exercise: // returns reported Kd for input FAM-Omft (dsDNA) DNA 1: TCCATTCTGGCACTCGATGCCATATAT DNA 2: ATATATGGCATCGAGTGCCAGAATGGA
Solution: 13
